src = PubChem BioAssay AID2060493

system: 616215-338-R-J1-PDC tumor spheroids, viability; test: Anticancer human tumor 616215-338-R-J1-PDC patient-derived colon adenocarcinoma cell line growth inhibition [GQUAD]; conditions: second compound 0.316 µM; first compound 0.316 µM; spheroids with HUVEC and MSC; active means viability on the fitted dose curve at most 10% of control; inactive means the rest
Your response should consist of one outcome taken from T for active, F for inactive

Look over these answered cases.
{"columns": ["Compound", "Category label"],
 "data": [
  ["C#Cc1c(F)ccc2cc(O)cc(-c3ncc4c(N5CC6CCC(C5)N6)nc(OCC56CCCN5CC(F)C6)nc4c3F)c12 (stereo not given) + Cc1[nH]c2ccc(F)cc2c1-c1nc2c3cccnc3c3ncccc3c2[nH]1", "F"],
  ["Cc1[nH]c2ccccc2c1CCNCc1ccc(/C=C/C(=O)NO)cc1 + Cc1cnc(CNC(=O)c2c(=O)c3ccc(N4CCCN(C)CC4)nc3n3c2sc2ccccc23)cn1", "T"],
  ["COc1ccc([C@@H](O)c2cc(-c3ncnc4cc(N5CCOCC5)ccc34)c(F)cc2Cl)nn1 + CN(C)c1ccc(Nc2c3ccc(NC(=O)CCN4CCCC4)cc3nc3cc(NC(=O)CCN4CCCC4)ccc23)cc1", "F"]
]}

Query: recorded result category for Cc1cccc(N(C)C(=O)C2C(O)CCN2c2nc(C)cc(C(F)(F)F)c2C#N)c1 (stereo not given) + Cc1[nH]c2ccc(F)cc2c1-c1nc2c3cccnc3c3ncccc3c2[nH]1 in this test
F

Query: recorded result category for CC(C)n1c(=O)n(C)c2cnc3cc(F)c(-c4ccc(OCCCN5CCCCC5)nc4)cc3c21 + CN(C)c1ccc(Nc2c3ccc(NC(=O)CCN4CCCC4)cc3nc3cc(NC(=O)CCN4CCCC4)ccc23)cc1 in this test
F

---

System: 616215-338-R-J1-PDC tumor spheroids, viability
Assay: Anticancer human tumor 616215-338-R-J1-PDC cell line growth inhibition [GQUAD];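 further: spheroids exposed to agents for 7 days before readout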
Settings: curve of first compound; second compound 0.0316 µM; spheroids with HUVEC and MSC
Source text: DNA G-quadruplex Stabilizer Agents in Combinations in Complex Spheroids A high-throughput screen of multi-cell type tumor spheroids was designed to identify active combinations of DNA G-quadruplex stabilizer agents and targeted small molecules. […] Compounds. […] If the clinical Cmax for an agent had not been determined, the highest concentration tested was 10 microM. […]
Each entry below carries its recorded IC50.
Write the number in µM without appending the unit.

{"columns": ["Molecule", "System name", "Unit descriptor", "Result"],
 "data": [
  ["O=c1[nH]cc(F)c(=O)[nH]1 + CN(C)c1ccc(Nc2c3ccc(NC(=O)CCN4CCCC4)cc3nc3cc(NC(=O)CCN4CCCC4)ccc23)cc1", "616215-338-R-J1-PDC tumor spheroids, viability", "µM", 0.663]
]}

Lab note: next molecule to report on.
Item COc1cc(C2c3cc4c(cc3C(OC3OC5COC(C)OC5C(O)C3O)C3COC(=O)C23)OCO4)cc(OC)c1O (stereo not drawn) + CN(C)c1ccc(Nc2c3ccc(NC(=O)CCN4CCCC4)cc3nc3cc(NC(=O)CCN4CCCC4)ccc23)cc1 has what recorded IC50?
0.967

---

system: 616215-338-R-J1-PDC tumor spheroids, viability; assay: Anticancer human tumor 616215-338-R-J1-PDC cell line growth inhibition [GQUAD]; conditions: second compound 0.0316 µM; first compound 1 µM; stronger effect = lower value; spheroids with HUVEC and MSC;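 further: spheroids exposed to agents for 7 days before readout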;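 on viability, T/C: percent viability relative to DMSO vehicle control wells taken as 100%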
Recorded metric: viability, T/C

Some solved entries appear below for comparison.
{"columns": ["Molecule", "System name", "viability, T/C"],
 "data": [
  ["CCCS(=O)(=O)Nc1ccc(F)c(C(=O)c2c[nH]c3ncc(-c4ccc(Cl)cc4)cc23)c1F + Cc1cnc(CNC(=O)c2c(=O)c3ccc(N4CCCN(C)CC4)nc3n3c2sc2ccccc23)cn1", "616215-338-R-J1-PDC tumor spheroids, viability", "104%"],
  ["Cc1cccc(N(C)C(=O)C2C(O)CCN2c2nc(C)cc(C(F)(F)F)c2C#N)c1 (stereo not drawn) + Cc1[nH]c2ccc(F)cc2c1-c1nc2c3cccnc3c3ncccc3c2[nH]1", "616215-338-R-J1-PDC tumor spheroids, viability", "87.6%"]
]}

Lab note: next molecule to report on.
Item CC1COCCN1c1cc(-c2ccnn2C)c2ccnc(-c3ccn[nH]3)c2n1 (stereo not drawn) + Cc1[nH]c2ccc(F)cc2c1-c1nc2c3cccnc3c3ncccc3c2[nH]1 has what recorded viability, T/C?
25.1%

---

tested on: 616215-338-R-J1-PDC tumor spheroids, viability; test: Anticancer human tumor 616215-338-R-J1-PDC cell line growth inhibition [GQUAD]; details: curve of first compound; second compound 3.16 µM; spheroids with HUVEC and MSC;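 further: spheroids exposed to agents for 7 days before readout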
pIC50: −log10 of the molar value.
Each entry below carries its recorded pIC50.

Some solved entries appear below for comparison.
{"columns": ["Compound", "Recorded metric", "Result"],
 "data": [
  ["CC(=O)O[C@H]1C(=O)[C@@]2(C)[C@H]([C@H](OC(=O)c3ccccc3)[C@]3(O)C[C@H](OC(=O)[C@H](O)[C@@H](NC(=O)c4ccccc4)c4ccccc4)C(C)=C1C3(C)C)[C@]1(OC(C)=O)CO[C@@H]1C[C@@H]2O + Cc1cnc(CNC(=O)c2c(=O)c3ccc(N4CCCN(C)CC4)nc3n3c2sc2ccccc23)cn1", "pIC50", "> 7.50"],
  ["C=CCn1c(=O)c2cnc(Nc3ccc(N4CCN(C)CC4)cc3)nc2n1-c1cccc(C(C)(C)O)n1 + Cc1cnc(CNC(=O)c2c(=O)c3ccc(N4CCCN(C)CC4)nc3n3c2sc2ccccc23)cn1", "pIC50", "> 7.50"],
  ["Cc1cccc(N(C)C(=O)C2C(O)CCN2c2nc(C)cc(C(F)(F)F)c2C#N)c1 (stereo not given) + Cc1cnc(CNC(=O)c2c(=O)c3ccc(N4CCCN(C)CC4)nc3n3c2sc2ccccc23)cn1", "pIC50", "> 7.50"],
  ["COc1ncnc(C2CC2)c1-c1ncc2cnn(Cc3ccc(-c4nc(C(F)(F)F)cn4C(C)C)cc3)c2n1 + Cc1cnc(CNC(=O)c2c(=O)c3ccc(N4CCCN(C)CC4)nc3n3c2sc2ccccc23)cn1", "pIC50", "> 7.50"],
  ["CC1COCCN1c1cc(-c2ccnn2C)c2ccnc(-c3ccn[nH]3)c2n1 (stereo not given) + Cc1[nH]c2ccc(F)cc2c1-c1nc2c3cccnc3c3ncccc3c2[nH]1", "pIC50", 6.85],
  ["O=C(NO)c1cnc(N2CCN(S(=O)(=O)c3ccc4ccccc4c3)CC2)nc1 + Cc1cnc(CNC(=O)c2c(=O)c3ccc(N4CCCN(C)CC4)nc3n3c2sc2ccccc23)cn1", "pIC50", "> 7.50"],
  ["CCc1c2c(nc3ccc(O)cc13)-c1cc3c(c(=O)n1C2)COC(=O)[C@]3(O)CC + Cc1cnc(CNC(=O)c2c(=O)c3ccc(N4CCCN(C)CC4)nc3n3c2sc2ccccc23)cn1", "pIC50", "> 9.00"],
  ["C=CCn1c(=O)c2cnc(Nc3ccc(N4CCN(C)CC4)cc3)nc2n1-c1cccc(C(C)(C)O)n1 + Cc1[nH]c2ccc(F)cc2c1-c1nc2c3cccnc3c3ncccc3c2[nH]1", "pIC50", 6.59],
  ["CC(C)(O)C1CCC(Nc2ccc3ncc(-c4cccc(C(F)(F)F)c4)n3n2)CC1 (stereo not given) + CN(C)c1ccc(Nc2c3ccc(NC(=O)CCN4CCCC4)cc3nc3cc(NC(=O)CCN4CCCC4)ccc23)cc1", "pIC50", 6.23]
]}

Lab note: next compound to report on.
616215-338-R-J1-PDC tumor spheroids, viability / pIC50 / O=C(c1cc(Cc2n[nH]c(=O)c3ccccc23)ccc1F)N1CCN(C(=O)C2CC2)CC1 + Cc1cnc(CNC(=O)c2c(=O)c3ccc(N4CCCN(C)CC4)nc3n3c2sc2ccccc23)cn1 : value?
> 7.50

---

Test system: 616215-338-R-J1-PDC tumor spheroids, viability
Experiment: Anticancer human tumor 616215-338-R-J1-PDC cell line growth inhibition [GQUAD];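 further: spheroids exposed to agents for 7 days before readout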;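 on viability, T/C: percent viability relative to DMSO vehicle control wells taken as 100%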
Details: second compound 10 µM; first compound 0.0316 µM; stronger effect = lower value; spheroids with HUVEC and MSC
Source text: DNA G-quadruplex Stabilizer Agents in Combinations in Complex Spheroids A high-throughput screen of multi-cell type tumor spheroids was designed to identify active combinations of DNA G-quadruplex stabilizer agents and targeted small molecules. […] Compounds. […] If the clinical Cmax for an agent had not been determined, the highest concentration tested was 10 microM. […]
Recorded metric: viability, T/C (%)
Write the number in % without appending the unit.

Some solved entries appear below for comparison.
{"columns": ["Compound", "Recorded metric", "Unit descriptor", "Result"],
 "data": [
  ["O=c1[nH]cc(F)c(=O)[nH]1 + Cc1cnc(CNC(=O)c2c(=O)c3ccc(N4CCCN(C)CC4)nc3n3c2sc2ccccc23)cn1", "viability, T/C", "%", 25.7],
  ["O=C(c1cc(Cc2n[nH]c(=O)c3ccccc23)ccc1F)N1CCN(C(=O)C2CC2)CC1 + Cc1[nH]c2ccc(F)cc2c1-c1nc2c3cccnc3c3ncccc3c2[nH]1", "viability, T/C", "%", 96.5],
  ["Cc1cccc(N(C)C(=O)C2C(O)CCN2c2nc(C)cc(C(F)(F)F)c2C#N)c1 (centres undefined) + CN(C)c1ccc(Nc2c3ccc(NC(=O)CCN4CCCC4)cc3nc3cc(NC(=O)CCN4CCCC4)ccc23)cc1", "viability, T/C", "%", 102]
]}

Lab note: next compound to report on.
Item C#Cc1c(F)ccc2cc(O)cc(-c3ncc4c(N5CC6CCC(C5)N6)nc(OCC56CCCN5CC(F)C6)nc4c3F)c12 (centres undefined) + Cc1[nH]c2ccc(F)cc2c1-c1nc2c3cccnc3c3ncccc3c2[nH]1 has what recorded viability, T/C?
97.2
